Recorded values, source the supplement of paper PMC9732359.

- assay.explanation: protein stability index of a GFP-peptide fusion (yeast GPS) (PSI 1-4); higher = more stable; sorted into four equal gates, so the index is relative within each strain
- applied.conditions: ubr1∆
measured.property: protein stability index
# print the numeric value only

Exam item: For the sequence LTKYKEMERIVKNLTKY [SRP68] , what protein stability index is on record?
Marked response: 2.78

Exam item: What would you report for KKSKLISLYLLNLLSQN [RPN12] ?
Marked response: 1.84

Exam item: Next entry: FTNVPLNLEQVTLNKYC [YJL039C/NUP192]
Marked response: 2.14

Exam item: Again, but for ERLMISSDAFEVDVCDK [RET1]
Marked response: 2.21

Exam item: Also need GGESMEGPKKCIQVNCL [SNM1] , thanks.
Marked response: 1.79

Exam item: // next record IEDDGIIESHLIQLQNI [CSN9]
Marked response: 2.76

Exam item: Also check KFKDMGIRAPKGALMYG [RPT5]
Marked response: 3.4

Exam item: Check EKLTSKSLDEQLLLLSD [LRP1] too.
Marked response: 3.31

Exam item: Try this sequence too: IDRKVEFSLPDLEGRAN [RPT1]
Marked response: 3.18

Exam item: How about this sequence: NNSALSNVNSDIYFKLK [RPT3]
Marked response: 3.25

Exam item: Now the sequence VDNVTLESYKTQAKKLY [SRP72]
Marked response: 2.89

Exam item: Then RNKSAANNDINSLLSNF [YDL088C/ASM4] ?
Marked response: 3.02

Exam item: Please do the same for RSWTLTSEMKVLSIPPA [YGL100W/SEH1] as well.
Marked response: 2.1

Exam item: Next sequence up: PGAKPLQVGDVVSTTAV [FAS1]
Marked response: 2.66

Exam item: Also check CSSATVPKHMLDKLDEI [AAR2]
Marked response: 3.2

Exam item: Again, but for EDETVKVAQLRQTGPAK [NSL1]
Marked response: 3.67

Exam item: Field entry: PEREVLVRELYQWRDLI [RRP6]
Marked response: 2.58

Exam item: Try the sequence GSRMVRELFVMAREHAP [RPT6]
Marked response: 1.54

Exam item: Next sequence up: RLASEPGIISITSLQDS [YMR129W/POM152]
Marked response: 1.82

Exam item: Next entry: AETKSYDSRGVGEMKLL [YLR335W/NUP2]
Marked response: 2.44

Exam item: Now this one: LKSLYSFFNISPDAPKE [SIN4]
Marked response: 1.84

Exam item: Try the sequence PKLESVKWQYDPNNPVD [SNF12]
Marked response: 2.55

Exam item: Now consider FKKAAPSPISHVAEIRS [RPB2] .
Marked response: 1.81

Exam item: Cool, now CPYCYKKRREYFPEGYN [SIR2]
Marked response: 2.75

Exam item: Now give it for LENFKSYAGKQVVGPFH [SMC4] too.
Marked response: 2.98

Exam item: Then this sequence: SAGRIESNNPSHDASRS [SIR4]
Marked response: 2.98

Exam item: Subsequent entry: KPKKPKGRAYKRLLYTR [RPS30A]
Marked response: 2.99

Exam item: Now the sequence YGGDGLDPLEMEGNAQP [RPO31]
Marked response: 3.29

Exam item: Check TTRVGGGGAARRQAVDV [RPS5] too.
Marked response: 1.82

Exam item: // same read-out, input: IALSRRFLLNGRVKALE [YDL116W/NUP84]
Marked response: 1.24
